Measured AUC(0-t) of individual entries
assay: Single oral dose human plasma pharmacokinetics of D, DA and DOH after Cogni.Q; format: in vivo; details: human, plasma, oral, 4 Cogni.Q vegicaps, subject S18 (180 lb); read-out: AUC0-48h
assay-readout: AUC(0-t) (µM·h)

>>> print(df.to_string())
                                   compound  observed
0  C/C=C(/C)C(=O)O[C@H]1Cc2cc3ccc(=O)oc3cc2OC1(C)C [DA, decursinol angelate]    0.0481
1  CC(C)=CC(=O)O[C@H]1Cc2cc3ccc(=O)oc3cc2OC1(C)C    0.0258
2        CC1(C)Oc2cc3oc(=O)ccc3cc2C[C@@H]1O      16.5
